- System: MCF-7 cells
- testSummary: Cytotoxicity assay (SRB), 72 h
- Type: cell-based, human
- experimentalSetup: IC50 of normal (BALB/3T3) vs. cancer cells (MCF-7)
assayMetric: Selectivity index MCF-7
Returns: the value as a bare number; no unit string appended.

CN1C(=O)c2cc(Br)ccc2N(CCCCCC(=O)NO)C(=O)c2ccccc21: 1.24
O=C(CCCCCN1C(=O)c2ccccc2CCc2ccccc21)NO: 1.57
CN1C(=O)c2cc3ccccc3cc2N(CCCCCC(=O)NO)C(=O)c2cc(Cl)ccc21: 1.88
O=C(CCCCCN1C(=O)c2ccccc2C=Cc2ccccc21)NO: 2.07

Now let's try a different one.
Incoming: Look up Selectivity index MCF-7 for this compound: `COc1cc2c(cc1OC)N(CCCCCC(=O)NO)C(=O)c1ccccc1N(C)C2=O`
Outgoing: 2.84

###

assayMetric: melting point

Solved entries:
O=C(CCCCCN1C(=O)c2ccccc2CCc2ccccc21)NO: 164 to 165 °C
CN1C(=O)c2ccccc2N(CC(=O)NO)C(=O)c2ccccc21: 233 to 234 °C
CN1C(=O)c2ccccc2N(CCC(=O)NO)C(=O)c2ccccc21: 105 to 106 °C
CN1C(=O)c2ccccc2C(=O)N(CCCCCC(=O)NO)c2ccccc21: 95 to 96 °C

Incoming: Look up melting point for this molecule: `CN1C(=O)c2cc(Cl)c(Cl)cc2C(=O)N(CCCCCC(=O)NO)c2ccccc21`
Outgoing: 104 to 105 °C

Incoming: Look up melting point for this molecule: `O=C(CCCN1C(=O)c2ccccc2C=Cc2ccccc21)NO`
Outgoing: 172 to 173 °C

###

assayMetric: melting point

Incoming: Look up melting point for this compound: `O=C(CCN1C(=O)c2ccccc2C=Cc2ccccc21)NO`
Outgoing: 173 to 174 °C

###

Catalogue of compounds with associated IC50
Target protein (sequence): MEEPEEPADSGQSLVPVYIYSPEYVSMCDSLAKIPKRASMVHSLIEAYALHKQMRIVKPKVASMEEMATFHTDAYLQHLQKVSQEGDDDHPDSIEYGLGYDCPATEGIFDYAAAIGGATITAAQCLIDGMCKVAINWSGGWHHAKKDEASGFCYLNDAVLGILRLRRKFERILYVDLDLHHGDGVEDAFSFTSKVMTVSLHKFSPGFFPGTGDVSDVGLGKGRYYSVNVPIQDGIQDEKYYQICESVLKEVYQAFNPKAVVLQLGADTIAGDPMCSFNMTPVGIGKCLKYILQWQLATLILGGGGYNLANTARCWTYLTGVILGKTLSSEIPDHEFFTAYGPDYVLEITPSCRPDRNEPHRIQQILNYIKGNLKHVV
Supply the numeric figure in µM, leaving out any unit text.

CN1C(=O)c2ccccc2N(CCCCCC(=O)NO)C(=O)c2ccccc21 [Compound 7e]: 5.67
O=C(CCCCCN1C(=O)c2ccccc2CCc2ccccc21)NO [Compound 7p]: 3.14
O=C(CCCCCN1C(=O)c2ccccc2C=Cc2ccccc21)NO [Compound 7k]: 3.37

Now let's try a different one.
Incoming: Look up IC50 for this compound: CN1C(=O)c2cc3ccccc3cc2N(CCCCCC(=O)NO)C(=O)c2cc(Cl)ccc21 [Compound 7t]
Outgoing: 1.95

###

Catalogue of molecules with associated pIC50
- Tested on: A549 cells
- testSummary: Cytotoxicity assay (SRB), 72 h
- Type: cell-based, human
- experimentalSetup: Homo sapiens, A549; 72 h of treatment, SRB
Lab note — pIC50 values are minus log10 of concentrations in M.

Solved entries:
CN1C(=O)c2cc(Br)ccc2N(CCCCCC(=O)NO)C(=O)c2ccccc21 [Compound 7r]: 5.34
COc1cc2c(cc1OC)N(CCCCCC(=O)NO)C(=O)c1ccccc1N(C)C2=O [Compound 7s]: 4.75
O=C(CCCCCN1C(=O)c2ccccc2C=Cc2ccccc21)NO [Compound 7k]: 5.90
CN1C(=O)c2cc3ccccc3cc2N(CCCCCC(=O)NO)C(=O)c2cc(Cl)ccc21 [Compound 7t]: 5.98

Now let's try a different one.
Incoming: Look up pIC50 for this molecule: O=C(CCCCCN1C(=O)c2ccccc2CCc2ccccc21)NO [Compound 7p]
Outgoing: 5.92

###

- System: Daudi cells
- testSummary: Cytotoxicity assay (MTT), 72 h
- Format: cell-based, human
- experimentalSetup: IC50 of normal (BALB/3T3) vs. cancer cells (Daudi)
Catalogue of molecules with associated Selectivity index Daudi
Returns: the value as a bare number; no unit string appended.

Solved entries:
COc1cc2c(cc1OC)N(CCCCCC(=O)NO)C(=O)c1ccccc1N(C)C2=O [Compound 7s]: 12.75
O=C(CCCCCN1C(=O)c2ccccc2C=Cc2ccccc21)NO [Compound 7k]: 2.78
O=C(CCCCCN1C(=O)c2ccccc2CCc2ccccc21)NO [Compound 7p]: 3.27

Incoming: I'm curious: which Selectivity index Daudi was measured for CN1C(=O)c2cc3ccccc3cc2N(CCCCCC(=O)NO)C(=O)c2cc(Cl)ccc21 [Compound 7t] tested on Daudi cells?
Outgoing: 5.04

Incoming: I'm curious: which Selectivity index Daudi was measured for CN1C(=O)c2cc(Br)ccc2N(CCCCCC(=O)NO)C(=O)c2ccccc21 [Compound 7r] tested on Daudi cells?
Outgoing: 4.29

###

Catalogue of compounds with associated HDAC activity at 2 µM [%]
- System: HDAC homologues (HDACs), HeLa cell extract
- testSummary: Fluorimetric HDACs inhibition kit (Histone Deacetylase Activity Assay, HeLa cell extract)
- experimentalSetup: remaining HDACs activity at 2 µM compound
Supply the numeric figure in %, leaving out any unit text.

O=C(CCCCCCN1C(=O)c2ccccc2C=Cc2ccccc21)NO: 44.7
CN1C(=O)c2ccccc2N(CCCCCC(=O)NO)C(=O)c2ccccc21: 48.7
O=C(CN1C(=O)c2ccccc2C=Cc2ccccc21)NO: 83.6
CN1C(=O)c2ccccc2N(CC(=O)NO)C(=O)c2ccccc21: 95.6
CN1C(=O)c2ccccc2N(CCCCCCC(=O)NO)C(=O)c2ccccc21: 66.1
CN1C(=O)c2ccccc2N(CCC(=O)NO)C(=O)c2ccccc21: 84.1

Incoming: Look up HDAC activity at 2 µM [%] for this compound: `O=C(CCCCCN1C(=O)c2ccccc2C(=O)N(Cc2ccccc2)c2ccccc21)NO`
Outgoing: 64.5

Incoming: Look up HDAC activity at 2 µM [%] for this compound: `O=C(CCCN1C(=O)c2ccccc2C=Cc2ccccc21)NO`
Outgoing: 90.4

Incoming: Look up HDAC activity at 2 µM [%] for this compound: `CN1C(=O)c2ccccc2C(=O)N(CCCCCC(=O)NO)c2ccccc21`
Outgoing: 72.7

###

- Test system: HDAC homologues (HDACs), HeLa cell extract
- testSummary: Fluorimetric HDACs inhibition kit (Histone Deacetylase Activity Assay, HeLa cell extract)
- experimentalSetup: remaining HDACs activity at 2 µM compound
assayMetric: HDAC activity at 2 µM [%] (%)
Supply the numeric figure in %, leaving out any unit text.

Solved entries:
CN1C(=O)c2cc(Cl)c(Cl)cc2C(=O)N(CCCCCC(=O)NO)c2ccccc21: 68.3
CN1C(=O)c2ccccc2N(CCCCC(=O)NO)C(=O)c2ccccc21: 64.6
O=C(CCCCCN1C(=O)c2ccccc2CCc2ccccc21)NO: 21.5

Incoming: Look up HDAC activity at 2 µM [%] for this molecule: `O=C(CCCCN1C(=O)c2ccccc2C=Cc2ccccc21)NO`
Outgoing: 63.3

###

assayMetric: melting point

CN1C(=O)c2ccccc2N(CCCC(=O)NO)C(=O)c2ccccc21: 190 to 191 °C
CN1C(=O)c2cc(Br)ccc2N(CCCCCC(=O)NO)C(=O)c2ccccc21: 76 to 77 °C

Now let's try a different one.
Incoming: Look up melting point for this compound: `COc1cc2c(cc1OC)N(CCCCCC(=O)NO)C(=O)c1ccccc1N(C)C2=O`
Outgoing: 82 to 83 °C

###

Catalogue of molecules with associated melting point

Solved entries:
CN1C(=O)c2ccccc2N(CCCCC(=O)NO)C(=O)c2ccccc21 [Compound 7d]: 217 to 218 °C
CN1C(=O)c2ccccc2N(CCCCCC(=O)NO)C(=O)c2ccccc21 [Compound 7e]: 155 to 156 °C
O=C(CCCCCCN1C(=O)c2ccccc2C=Cc2ccccc21)NO [Compound 7l]: 151 to 152 °C

Incoming: Look up melting point for this molecule: CN1C(=O)c2cc3ccccc3cc2N(CCCCCC(=O)NO)C(=O)c2cc(Cl)ccc21 [Compound 7t]
Outgoing: 161 to 162 °C

Incoming: Look up melting point for this molecule: O=C(CCCCN1C(=O)c2ccccc2C=Cc2ccccc21)NO [Compound 7j]
Outgoing: 175 to 176 °C

Incoming: Look up melting point for this molecule: O=C(CN1C(=O)c2ccccc2C=Cc2ccccc21)NO [Compound 7g]
Outgoing: 119 to 120 °C

Incoming: Look up melting point for this molecule: O=C(CCCCCN1C(=O)c2ccccc2C(=O)N(Cc2ccccc2)c2ccccc21)NO [Compound 7o]
Outgoing: 172 to 173 °C

Incoming: Look up melting point for this molecule: CN1C(=O)c2ccccc2N(CCCCCCC(=O)NO)C(=O)c2ccccc21 [Compound 7f]
Outgoing: 145 to 146 °C

The measured values listed here are drawn from paper PMC8470702.
